- Experimental System: DYRK1A kinase (Homo sapiens, UniProt Q13627)
- Assay Notes: DYRK1A kinase activity (Ser/Thr 18 peptide Z-lyte FRET assay);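 note: kinase activity read as coumarin/fluorescein emission ratio after development step, with unphosphorylated and phosphorylated peptide forms setting 0% and 100% controls, values from dose-response curves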
- Assay Setup: recombinant DYRK1A, 30 μM ATP, one hour at room temperature
Readout Kind: EC50

* Cc1ncc(C(=O)Nc2ncc3ccc(-c4cnc(C)n4C)cc3n2)s1 [Compound 1353] | 11 nM
* CN(CC(=O)Nc1cc2cc(-c3cnn(C)c3)ncc2cn1)C1CCC1 [Compound 3683] | 8 nM
* CC(C(=O)Nc1ncc2ccc(-c3cnn(C)c3)cc2n1)N1CCCCC1 (stereo not drawn) [Compound 978] | 171 nM
* CN1CC=C(c2cc(C(=O)Nc3ncc4ccc(-c5cncc(NC(C)(C)C)n5)cc4n3)ccn2)CC1 [Compound 1773] | 1 nM
* C[C@H]1CCCN1CC(=O)Nc1ncc2ccc(-c3cnn(C)c3)cc2n1 [Compound 954] | 69 nM
* Cn1cc(-c2ccc3cnc(NC(=O)C4CCNCC4)cc3n2)cn1 [Compound 11] | 14 nM

----------
- Experimental System: GSK3β kinase (Homo sapiens, UniProt P49841)
- Sequence (P49841 whole entry): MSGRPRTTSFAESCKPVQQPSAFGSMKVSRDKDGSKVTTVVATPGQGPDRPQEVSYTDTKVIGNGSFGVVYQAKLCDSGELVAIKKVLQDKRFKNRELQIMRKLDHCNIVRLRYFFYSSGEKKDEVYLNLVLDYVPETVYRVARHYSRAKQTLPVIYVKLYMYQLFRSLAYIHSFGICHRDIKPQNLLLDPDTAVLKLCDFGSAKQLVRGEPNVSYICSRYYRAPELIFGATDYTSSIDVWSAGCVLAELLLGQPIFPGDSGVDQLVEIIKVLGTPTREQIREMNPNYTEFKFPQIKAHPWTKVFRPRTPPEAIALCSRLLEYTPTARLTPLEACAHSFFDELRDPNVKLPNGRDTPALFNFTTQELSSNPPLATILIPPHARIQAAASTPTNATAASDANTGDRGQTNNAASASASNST
- Assay Notes: GSK3β kinase activity (Ser/Thr 09 peptide Z-lyte FRET assay)
- Assay type: biochemical
- Assay Setup: recombinant kinase, 46 μM ATP, one hour at room temperature; read-out: EC50
Readout Kind: EC50 (nM)

* Cn1cncc1-c1cc2cc(NC(=O)c3ccc(F)cc3)ncc2cn1 | 966
* O=C(Nc1ncc2ccc(-c3cncs3)cc2n1)C1CCN(C2COC2)CC1 | 1380
* Cn1cc(-c2ccc3cnc(NC(=O)CC4CNCCO4)nc3c2)cn1 (stereo not drawn) | 776
* Cc1ncc(-c2ccc3cnc(NC(=O)N4CCC(N5CCOCC5)CC4)cc3n2)o1 | 621

----------
Listing: pEC50 of selected compounds
- Experimental System: GSK3β kinase (Homo sapiens, UniProt P49841)
- Assay Notes: GSK3β kinase activity (Ser/Thr 09 peptide Z-lyte FRET assay)
- Format: biochemical
- Assay Setup: recombinant kinase, 46 μM ATP, one hour at room temperature; read-out: EC50
pEC50: −log10 of the molar value.
Readout Kind: pEC50

- CN(C)Cc1ccc(C(=O)Nc2cc3nc(-c4cnn(C)c4)ccc3cn2)cc1 [Compound 170]: 5.73
- CN1CCc2ccc(C(=O)Nc3cc4cc(-c5cnn(C)c5)ncc4cn3)cc2C1 [Compound 3829]: 6.12
- O=C(Nc1cc2cc(-c3cncc(NCC4(F)CNC4)n3)ncc2cn1)C1CC1 [Compound 4498]: 9.00
- CCN(CC)CC(=O)Nc1cc2cc(-c3cnn(C)c3CN3CCCCC3)ncc2cn1 [Compound 3910]: 6.94
- COC1CCN(CC(=O)Nc2cc3cc(-c4cn(C)nn4)ncc3cn2)CC1 [Compound 3985]: 5.91
- Cn1cc(-c2ccc3cnc(NC(=O)[C@H]4CC[C@H](N)CC4)cc3n2)cn1 [Compound 41]: 6.37
- Cc1ncc(-c2ccc3cnc(NC(=O)c4ccnc(N5CCN(C)CC5)c4)cc3n2)s1 [Compound 643]: 5.07
- CCN(CC)CC(=O)Nc1cc2cc(-c3cnn(C)c3CN3CCCCC3)cnc2cn1 [Compound 3003]: 5.82

----------
- Test system: SW480 colon carcinoma cells
- Assay Notes: Cell viability assay (CellTiter-Glo)
- Assay Setup: Homo sapiens, SW480, read-out: percent inhibition at 10 μM
Answer no (0) if inhibition at 10 µM is under 30%, and yes (1) if it is 30% or more.

- O=C(Nc1cc2cc(-c3cnco3)cnc2cn1)C1CCN(C(=O)CN2CCCC2)CC1: no (0)
- CC(F)(F)CN1CCC(C(=O)Nc2cc3nc(-c4cnco4)ccc3cn2)CC1: no (0)
- Cn1ncc(-c2ccc3cnc(NC(=O)C4CC5(C4)CN(CCF)C5)nc3c2)c1CN1CCCCC1: yes (1)
- Cn1cc(-c2ccc3cnc(NC(=O)C4CCN(S(C)(=O)=O)CC4)cc3n2)cn1: yes (1)
- CC(C)OCCC(=O)Nc1cc2cc(-c3cncn3C)cnc2cn1: no (0)
- CC(C(=O)Nc1cc2cc(-c3cncn3C)cnc2cn1)N1CCCC1 (stereo not shown): no (0)
- Cc1ncc(-c2ccc3cnc(NC(=O)N4CCOCC4)cc3n2)s1: yes (1)
